Give IRF reporter for every item shown.
# System: RAW-Dual (murine macrophage reporter line)
# experiment.notes: IRF reporter (Lucia luciferase) activity fold change vs agonist alone; higher = enhanced IRF activity
# protocol.conditions: modulator concentration 10 µM; agonist: LPS 0.1 ug/mL

Exercise: Item under review: Cc1cc(NC(=O)c2ccoc2COc2ccccc2)no1 . Reported IRF reporter?
Solution: 1.21

Exercise: Look at this molecule and give its reported IRF reporter. Cc1ccc2oc(-c3cccc(NC(=O)C(C)C)c3C)nc2c1
Solution: 1.16

Exercise: Consider the molecule shown here: CC(C)(C)c1ccc(C(=O)Nc2nc3ccc([N+](=O)[O-])cc3s2)cc1 What is its recorded IRF reporter?
Solution: 0.986

Exercise: For O=C(NN=Cc1c(O)ccc2ccccc12)c1ccccc1Br , what is its reported IRF reporter?
Solution: 1.05

Exercise: Which IRF reporter reading was recorded for the molecule CC(NC(=O)C1CCN(S(=O)(=O)N2CCCC2)CC1)c1ccc(F)cc1 (stereo not drawn) ?
Solution: 1.25

Exercise: Fill blank: measured IRF reporter of the molecule NC(=O)c1ncn(C2OC(CO)C(O)C2O)c1O (stereo not drawn) is ____.
Solution: 1.32

Exercise: Tell me the measured IRF reporter of CCOc1nc2cccc(C(=O)O)c2n1Cc1ccc(-c2ccccc2-c2nc(=O)o[nH]2)cc1 , please.
Solution: 1.41

Exercise: Recorded IRF reporter of NS(=O)(=O)c1ccc(C(=O)O)cc1 , please.
Solution: 1.01

Exercise: Would you kindly share the measured IRF reporter for COC1CC2CCC(C1)N2S(=O)(=O)c1ccc(Br)cc1 (stereo not drawn) ?
Solution: 1.22

Exercise: What does the data say about its IRF reporter? Entry: Nc1nc(Cl)nc2c1ncn2[C@H]1C[C@H](O)[C@@H](CO)O1
Solution: 1.09

Exercise: Consider the molecule shown here: O=C(O)CCc1nc(-c2ccccc2)c(-c2ccccc2)o1 What is its recorded IRF reporter?
Solution: 0.976

Exercise: Param item = Cc1c(C(=O)Nc2cccc3ccccc23)cccc1[N+](=O)[O-] ; retrieve measured IRF reporter.
Solution: 1.22

Exercise: Data request, read-out IRF reporter, for N#C[C@@H]1C[C@@H]2C[C@@H]2N1C(=O)[C@@H](N)C12CC3CC(CC(O)(C3)C1)C2.O
Solution: 0.921

Exercise: If you can, please state the reported IRF reporter value of OCCN1CCN(CC/C=C2/c3ccccc3Sc3ccc(Cl)cc32)CC1 .
Solution: 1.85

Exercise: So what does the record say about IRF reporter for CC1=C(C(=O)N2CCOCC2)C(c2cccs2)NC(=O)N1 (stereo not drawn) ?
Solution: 1.07

Exercise: Look up IRF reporter: Br.O=S(=O)(c1ccc(-c2csc(Nc3ccc(Br)cc3)n2)cc1)N1CCOCC1
Solution: 1.14

Exercise: GET /values?readout=IRF reporter&item= CNC1CCC(c2ccc(Cl)c(Cl)c2)c2ccccc21.Cl (stereo not drawn)
Solution: 1.94

Exercise: Consider the molecule shown here: CCOc1ccc2nc(SC3CC(=O)N(c4cccc(Cl)c4)C3=O)sc2c1 (stereo not drawn) What is its recorded IRF reporter?
Solution: 1.11

Exercise: Would you kindly share the measured IRF reporter for Clc1ccc(-c2nc(-c3ccc(I)cc3)[nH]c2-c2ccc(Cl)cc2)cc1 ?
Solution: 1.19

Exercise: For the molecule shown here, CCC(C)(C)C(=O)OC1CC(C)C=C2C=CC(C)C(CCC3CC(O)CC(=O)O3)C21 (stereo not drawn) , give the reported IRF reporter.
Solution: 0.918

Exercise: Query (molecule): Cc1ccc(C(=O)N2N=C(c3ccncc3)CC2(O)C(F)(F)F)cc1 (stereo not drawn) ; field requested: IRF reporter
Solution: 1.26

Exercise: Form field: reported IRF reporter of CCCCCCCCc1ccc(CCC(N)(CO)CO)cc1.Cl
Solution: 0.673

Exercise: Reported IRF reporter for CC(=O)Nc1ccc(NC(=S)NC(=O)C=Cc2ccc(Cl)cc2Cl)cc1 : what is it?
Solution: 1.33

Exercise: Query: IRF reporter; subject: CC(=O)c1cc(Cl)ccc1OC(=O)c1ccccc1Cl
Solution: 1.63

Exercise: Reported IRF reporter, molecule CCOc1ccc(-c2nc3c(c(C)nn3-c3ccccc3)c3cc(OC)c(OC)cc23)cc1 : ____
Solution: 1.29

Exercise: What does the data say about its IRF reporter? Entry: COc1ccc(N(CC(=O)NCCSCc2ccccc2)S(C)(=O)=O)cc1Cl
Solution: 1.08

Exercise: GET /values?readout=IRF reporter&item= CC(C)Nc1cc(-c2c[nH]c(C(=O)N[C@H](CO)c3cccc(Cl)c3)c2)c(Cl)cn1
Solution: 1.46

Exercise: Quick one: IRF reporter of C=C1C(=O)OC2C1CCC(C)=CCCC1(C)OC21 (stereo not drawn) ?
Solution: 0.025

Exercise: Would you mind telling me what IRF reporter value was observed for C[C@H]1[C@@H](OC(=O)CCC(=O)O)O[C@@H]2O[C@]3(C)CC[C@H]4[C@H](C)CC[C@@H]1[C@@]24OO3 ?
Solution: 1.11

Exercise: Would you mind telling me what IRF reporter value was observed for CCCCCCCC(O)CC(CC1CCCCC1)C(=O)NN (stereo not drawn) ?
Solution: 1.19

Exercise: Name the recorded IRF reporter for O=C(NCCc1csc(-c2ccc(F)cc2)n1)c1ccc(Br)cc1 .
Solution: 1.07

Exercise: Dear colleague, I am looking for the recorded IRF reporter of the following molecule: CC(C)(C)C1(O)CC(C(F)(F)F)=NN1C(=O)c1ccc([N+](=O)[O-])cc1 (stereo not drawn)
Solution: 1.13

Exercise: Return reported IRF reporter; argument: NC(=O)[C@@H](CCC(F)(F)F)N(Cc1ccc(-c2ncon2)cc1F)S(=O)(=O)c1ccc(Cl)cc1
Solution: 1.43
